Cited source for all entries: ChEMBL document CHEMBL3259769

Target: Bifunctional epoxide hydrolase 2 (Homo sapiens)
Sequence (P34913 whole entry): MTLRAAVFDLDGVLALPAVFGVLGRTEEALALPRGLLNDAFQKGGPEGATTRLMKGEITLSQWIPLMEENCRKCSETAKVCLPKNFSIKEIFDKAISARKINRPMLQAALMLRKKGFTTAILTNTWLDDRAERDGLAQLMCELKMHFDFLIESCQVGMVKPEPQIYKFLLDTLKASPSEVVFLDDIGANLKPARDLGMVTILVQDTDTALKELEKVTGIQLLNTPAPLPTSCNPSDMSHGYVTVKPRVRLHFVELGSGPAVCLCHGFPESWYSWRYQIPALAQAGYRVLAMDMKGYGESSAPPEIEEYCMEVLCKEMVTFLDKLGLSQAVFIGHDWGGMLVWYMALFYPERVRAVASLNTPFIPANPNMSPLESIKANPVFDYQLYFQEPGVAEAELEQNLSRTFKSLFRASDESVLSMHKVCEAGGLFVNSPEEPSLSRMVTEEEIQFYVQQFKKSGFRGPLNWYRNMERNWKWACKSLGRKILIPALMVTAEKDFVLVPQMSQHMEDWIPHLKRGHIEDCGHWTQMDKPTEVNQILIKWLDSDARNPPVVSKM
Assay: Inhibition of recombinant human soluble epoxide hydrolase using CMNPC as substrate preincubated for 5 mins followed by substrate addition measured at 5 mins post substrate addition by fluorescence assay in presence of 0.1 mg/mL BSA
OUTCOME MEASURE: IC50 (nM)

Here are 8 compounds together with their reported answers.
>>> print(df.to_string())
                                   compound  outcome_measure  unit_info  value_reported
0  O=C(NCCCCNC(=O)NC12CC3CC(CC(C3)C1)C2)NC12CC3CC(CC(C3)C1)C2             IC50         nM             7.2
1  O=C(NC12CC3CC(CC(C3)C1)C2)NC12CC3CC(CC(C3)C1)C2             IC50         nM             1.2
2  CC(NC(=O)NCCCCNC(=O)NC(C)C12CC3CC(CC(C3)C1)C2)C12CC3CC(CC(C3)C1)C2 (stereo unspecified)             IC50         nM             1.2
3  O=C(Nc1ccc(NC(=O)NC23CC4CC(CC(C4)C2)C3)cc1)NC12CC3CC(CC(C3)C1)C2             IC50         nM            19.5
4  O=C(NCCCCCCCCNC(=O)NC12CC3CC(CC(C3)C1)C2)NC12CC3CC(CC(C3)C1)C2             IC50         nM             997
5  CC(NC(=O)NCCCCCCCCNC(=O)NC(C)C12CC3CC(CC(C3)C1)C2)C12CC3CC(CC(C3)C1)C2 (stereo unspecified)             IC50         nM             0.5
6  O=C(NCCCCNC(=O)NCC12CC3CC(CC(C3)C1)C2)NCC12CC3CC(CC(C3)C1)C2             IC50         nM            26.3
7  O=C(NCC12CC3CC(CC(C3)C1)C2)Nc1ccc(NC(=O)NCC23CC4CC(CC(C4)C2)C3)cc1             IC50         nM             780

I. CC(NC(=O)Nc1ccc(NC(=O)NC(C)C23CC4CC(CC(C4)C2)C3)cc1)C12CC3CC(CC(C3)C1)C2 (stereo unspecified)
II. O=C(NCCCCCCCCNC(=O)NCC12CC3CC(CC(C3)C1)C2)NCC12CC3CC(CC(C3)C1)C2
[in] Between I and II , which one shows the larger IC50 value? Select an item and report its label.
[out] I
